Listed molecules paired with reported pest or weed control at 250 g/ha
Tested on: Lolium perenne (LOLPE)
Assay: Example B post-emergence herbicidal test, LOLPE
Format: in vivo
Details: Lolium perenne, 312 h, rate 250 g/ha, evaluated after 13 days, scale 0-100, read-out: Post-emergence activity LOLPE (100=total damage to plant; 0=no damage to plant)
Protocol: Seeds of a variety of test species were sown in standard soil in pots. […] After 13 days for pre and post-emergence, the test was evaluated (100=total damage to plant; 0=no damage to plant). […]

| molecule | display-unit | pest or weed control at 250 g/ha |
| --- | --- | --- |
| COC(=O)N1CCC(CC2CC(=O)C(c3c(C)cc(C)cc3C)C2=O)CC1 (stereo not shown) | % | 100 |
| Cc1cc(-c2ccccc2)cc(C)c1C1C(=O)C/C(=C\C2CCOCC2)C1=O (stereo not shown) | % | 60 |
| COC1=C(c2c(C)cc(C)cc2C)C(=O)C/C1=C\C1CCOCC1 | % | 40 |
| Cc1cc(C)c(C2C(=O)CC(CC3C[C@@H]4O[C@H]3[C@@H]3C(=O)NC(=O)[C@@H]34)C2=O)c(C)c1 (relative stereo) | % | 20 |

----------
Test system: Echinochloa crus-galli (ECHCG)
Assay: Example B post-emergence herbicidal test, ECHCG
Format: in vivo
Conditions: Echinochloa crus-galli, 312 h, rate 250 g/ha, evaluated after 13 days, scale 0-100, read-out: Post-emergence activity ECHCG (100=total damage to plant; 0=no damage to plant)
Kind request: treat 80% as inclusive, so pest or weed control at 250 g/ha at 80% or higher is true, anything lower is false.

| compound | group-label |
| --- | --- |
| CC(C)=CC(=O)N1CCC(CC2CC(=O)C(c3c(C)cc(C)cc3C)C2=O)CC1 (centres unmarked) | false |
| CC(=O)N1CCCCC1/C=C1\CC(=O)C(c2c(C)cc(C)cc2C)C1=O (centres unmarked) | false |
| Cc1cc(C)c(C2C(=O)C/C(=C\C3CCCCN3S(C)(=O)=O)C2=O)c(C)c1 (centres unmarked) | false |
| CCSC(=O)OC1=C(c2c(C)cc(C)cc2C)C(=O)/C(=C/C2CCN(C(=O)SCC)C2)C1 (centres unmarked) | false |
| Cc1cc(C)c(C2C(=O)CC(CC3CCN(C(=O)C(F)(F)F)CC3)C2=O)c(C)c1 (centres unmarked) | true |
| C=COC(=O)N1CCC(CC2CC(=O)C(c3c(C)cc(C)cc3C)C2=O)CC1 (centres unmarked) | false |
| Cc1cc(-c2ccc(C(F)(F)F)cc2)cc(C)c1C1C(=O)C/C(=C\C2CCOCC2)C1=O (centres unmarked) | true |
| Cc1cc(Br)cc(C)c1C1C(=O)CC(CC2CCOCC2)C1=O (centres unmarked) | false |
| Cc1cc(-c2ccc(Cl)cc2)cc(C)c1C1C(=O)CC(CC2CCOCC2)C1=O (centres unmarked) | true |
| Cc1cc(C)c(C2C(=O)CC(CC3CCN(S(=O)(=O)C(F)(F)F)CC3)C2=O)c(C)c1 (centres unmarked) | false |
| Cc1cc(-c2ccc(F)c(Cl)c2)cc(C)c1C1C(=O)C/C(=C\C2CCOCC2)C1=O (centres unmarked) | true |
| CCc1cc(C)cc(C)c1C1C(=O)CC(CC2CCOCC2)C1=O (centres unmarked) | true |
| CC(=O)N1CCCCC1CC1CC(=O)C(c2c(C)cc(C)cc2C)C1=O (centres unmarked) | true |
| Cc1cc(C)c(C2C(=O)CC(CC3CCOCC3)C2=O)c(C)c1 (centres unmarked) | true |
| Cc1cc(C)c(C2=C(O)CC(CC3CCOCC3)C2=O)c(C)c1 (centres unmarked) | true |
| Cc1cc(C)c(C2C(=O)CC(CC3CCN(C(=O)C4CCCCC4)CC3)C2=O)c(C)c1 (centres unmarked) | false |

----------
Listed molecules paired with reported pest or weed control at 250 g/ha
Tested on: Echinochloa crus-galli (ECHCG)
Test: Example B post-emergence herbicidal test, ECHCG
Type: in vivo
Conditions: Echinochloa crus-galli, 312 h, rate 250 g/ha, evaluated after 13 days, scale 0-100, read-out: Post-emergence activity ECHCG (100=total damage to plant; 0=no damage to plant)

| molecule | pest or weed control at 250 g/ha |
| --- | --- |
| CCC1(CC2CCOC2)CC(=O)C(c2c(C)cc(C)cc2C)C1=O (centres unmarked) | 10% |
| Cc1cc(C)c(C2C(=O)CC(CC3CCN(C(=O)c4ccccc4)CC3)C2=O)c(C)c1 (centres unmarked) | 80% |
| Cc1cc(C)c(C2C(=O)CC(CC3CCN(C(=O)C(F)(F)C(F)F)C3)C2=O)c(C)c1 (centres unmarked) | 90% |
| COCCOC(=O)N1CCC(CC2CC(=O)C(c3c(C)cc(C)cc3C)C2=O)CC1 (centres unmarked) | 60% |
| Cc1cc(C)c(C2=C(OC(=O)C(C)(C)CCl)CC(CC3CCN(C(=O)C(C)(C)CCl)C3)C2=O)c(C)c1 (centres unmarked) | 40% |
| Cc1cc(C)c(C2C(=O)CC(CC3CCN(C(=O)c4cccc(Cl)c4)CC3)C2=O)c(C)c1 (centres unmarked) | 90% |
| Cc1cc(Br)cc(C)c1C1C(=O)CC(CC2CCOC2)C1=O (centres unmarked) | 70% |
| Cc1cc(C)c(C2C(=O)CC(CC3CCS(=O)(=O)CC3)C2=O)c(C)c1 (centres unmarked) | 90% |

----------
Test system: Alopecurus myosuroides (ALOMY)
Assay: Example B post-emergence herbicidal test, ALOMY
Format: in vivo
Details: Alopecurus myosuroides, 312 h, rate 250 g/ha, evaluated after 13 days, scale 0-100, read-out: Post-emergence activity ALOMY (100=total damage to plant; 0=no damage to plant)
Rule for this label: 1 means pest or weed control at 250 g/ha is less than 60%; -1 means pest or weed control at 250 g/ha is at least 60%.

| molecule | group-label |
| --- | --- |
| Cc1cc(C)c(C2=C(OC(=O)Oc3ccccc3)CC(CC3CCOC3)C2=O)c(C)c1 (stereo not shown) | -1 |
| Cc1cc(C)c(C2C(=O)CC(CC3CCN(C(=O)c4ccc(-c5ccccc5)cc4)CC3)C2=O)c(C)c1 (stereo not shown) | 1 |
| Cc1cc(C)c(C2C(=O)CC(CC3CCN(C(=O)OCCCl)CC3)C2=O)c(C)c1 (stereo not shown) | 1 |
| CCCOC(=O)OC1=C(c2c(C)cc(C)cc2C)C(=O)C(CC2CCOC2)C1 (stereo not shown) | -1 |
| Cc1cc(-c2ccc(Cl)cc2F)cc(C)c1C1C(=O)C/C(=C\C2CCOCC2)C1=O (stereo not shown) | -1 |
| Cc1cc(C)c(C2=C(OC(=O)N3CCCCC3)CC(CC3CCOC3)C2=O)c(C)c1 (stereo not shown) | -1 |
| COc1ccc(C(=O)OC2=C(c3c(C)cc(C)cc3C)C(=O)C(CC3CCOC3)C2)cc1 (stereo not shown) | -1 |
| Cc1cc(C)c(C2C(=O)CC(CC3CCN(S(=O)(=O)c4ccc(Cl)cc4)CC3)C2=O)c(C)c1 (stereo not shown) | 1 |
| Cc1cc(C)c(C2C(=O)C/C(=C\C3CCN(C(=O)OC(C)(C)C)CC3)C2=O)c(C)c1 (stereo not shown) | -1 |
| Cc1cccc(C)c1C1C(=O)CC(CC2CCOCC2)C1=O (stereo not shown) | -1 |
| Cc1cc(C)c(C2C(=O)CC(CC3CCN(C(=O)c4ccccc4C)CC3)C2=O)c(C)c1 (stereo not shown) | 1 |
| CC(=O)N1CCC(CC2CC(=O)C(c3c(C)cc(C)cc3C)C2=O)CC1 (stereo not shown) | -1 |
| Cc1cc(C)c(C2C(=O)CC(CC3CCN(C(=O)c4ccc(C(F)(F)F)cc4)CC3)C2=O)c(C)c1 (stereo not shown) | -1 |
| Cc1cc(C)c(C2=C(OC(=O)C(C)(C)C)CC(CC3COCCO3)C2=O)c(C)c1 (stereo not shown) | -1 |

----------
Listed compounds paired with reported pest or weed control at 250 g/ha
Tested on: Alopecurus myosuroides (ALOMY)
Test: Example B post-emergence herbicidal test, ALOMY
Type: in vivo
Conditions: Alopecurus myosuroides, 312 h, rate 250 g/ha, evaluated after 13 days, scale 0-100, read-out: Post-emergence activity ALOMY (100=total damage to plant; 0=no damage to plant)
readout-label: pest or weed control at 250 g/ha (%)

| compound | readout-label | assay-value |
| --- | --- | --- |
| Cc1cc(C)c(C2C(=O)CC(CC3CCN(C(=O)C(C)(C)C)CC3)C2=O)c(C)c1 (stereo not drawn) | pest or weed control at 250 g/ha | 60 |
| Cc1cc(C)c(C2C(=O)CC(C)(CC3CCOC3)C2=O)c(C)c1 (stereo not drawn) | pest or weed control at 250 g/ha | 80 |
| Cc1cc(C)c(C2C(=O)CC(CC3COCCO3)C2=O)c(C)c1 (stereo not drawn) | pest or weed control at 250 g/ha | 80 |
| Cc1cc(C)c(C2C(=O)CC(CC3CCN(C(=O)C4CCCC4)CC3)C2=O)c(C)c1 (stereo not drawn) | pest or weed control at 250 g/ha | 40 |
| CON1CCC(CC2CC(OC(=O)c3ccccc3)=C(c3c(C)cc(C)cc3C)C2=O)CC1 (stereo not drawn) | pest or weed control at 250 g/ha | 90 |
| Cc1cc(C)c(C2C(=O)CC(CC3CCN(C(=O)C(C)C)C3)C2=O)c(C)c1 (stereo not drawn) | pest or weed control at 250 g/ha | 90 |
| COC(=O)OC1=C(c2c(C)cc(C)cc2C)C(=O)C(CC2CCOCC2)C1 (stereo not drawn) | pest or weed control at 250 g/ha | 100 |
| Cc1cccc(C(=O)N2CCC(CC3CC(=O)C(c4c(C)cc(C)cc4C)C3=O)CC2)c1 (stereo not drawn) | pest or weed control at 250 g/ha | 60 |
| COc1ccc(C(=O)N2CCC(CC3CC(=O)C(c4c(C)cc(C)cc4C)C3=O)CC2)cc1 (stereo not drawn) | pest or weed control at 250 g/ha | 70 |
| Cc1cc(C)c(C2C(=O)CC(CC3CCN(C(=O)C(C)(C)CCl)C3)C2=O)c(C)c1 (stereo not drawn) | pest or weed control at 250 g/ha | 60 |
| Cc1cc(C)c(C2C(=O)C/C(=C\C3CCN(C(=O)OCc4ccccc4)CC3)C2=O)c(C)c1 (stereo not drawn) | pest or weed control at 250 g/ha | 0 |
| COC1=C(c2c(C)cc(C)cc2C)C(=O)C(CC2CCOCC2)C1 (stereo not drawn) | pest or weed control at 250 g/ha | 60 |
| Cc1cc(C)c(C2=C(OC(=O)C(C)(C)C)CC(CCC3CCOCC3)C2=O)c(C)c1 (stereo not drawn) | pest or weed control at 250 g/ha | 80 |
| CON1CCC(CC2CC(OC(=O)OC(C)C)=C(c3c(C)cc(C)cc3C)C2=O)CC1 (stereo not drawn) | pest or weed control at 250 g/ha | 90 |
| Cc1cc(C)c(C2=C(OC(=O)c3c(C)noc3C)CC(CC3CCN(C(=O)c4c(C)noc4C)C3)C2=O)c(C)c1 (stereo not drawn) | pest or weed control at 250 g/ha | 90 |
| Cc1cc(C)c(C2C(=O)CC(CC3CCN(C(=O)c4ccccc4)CC3)C2=O)c(C)c1 (stereo not drawn) | pest or weed control at 250 g/ha | 70 |
| Cc1cc(C)c(C2C(=O)CC(CC3CCN(S(C)(=O)=O)C3)C2=O)c(C)c1 (stereo not drawn) | pest or weed control at 250 g/ha | 80 |
| COc1ccc(CC2C(=O)C(c3c(C)cc(C)cc3C)C(=O)C2CC2CCOC2)cc1 (stereo not drawn) | pest or weed control at 250 g/ha | 30 |
| Cc1cc(C)c(C2C(=O)C/C(=C\C3CCN(C(=O)c4ccccc4)C3)C2=O)c(C)c1 (stereo not drawn) | pest or weed control at 250 g/ha | 90 |
| Cc1cc(-c2ccccc2F)cc(C)c1C1C(=O)CC(CC2CCOCC2)C1=O (stereo not drawn) | pest or weed control at 250 g/ha | 90 |
| Cc1cc(C)c(C2C(=O)CC(CC3CCN(S(=O)(=O)c4ccccc4)CC3)C2=O)c(C)c1 (stereo not drawn) | pest or weed control at 250 g/ha | 40 |
| CCC1CCC(CC2CC(=O)C(c3c(C)cc(C)cc3C)C2=O)O1 (stereo not drawn) | pest or weed control at 250 g/ha | 60 |
| CCc1cc(C)cc(C)c1C1C(=O)CC(CC2CCOCC2)C1=O (stereo not drawn) | pest or weed control at 250 g/ha | 100 |
| Cc1cc(-c2ccc(F)cc2)cc(C)c1C1C(=O)CC(CC2CCOCC2)C1=O (stereo not drawn) | pest or weed control at 250 g/ha | 90 |
| Cc1cc(C)c(C2C(=O)CC(CC3CCN(C(=O)c4cc(C)on4)CC3)C2=O)c(C)c1 (stereo not drawn) | pest or weed control at 250 g/ha | 90 |
| Cc1cc(C)c(C2=C(OC(=O)c3ccccc3)CC(CC3CCOC3)C2=O)c(C)c1 (stereo not drawn) | pest or weed control at 250 g/ha | 100 |
| Cc1cc(C)c(C2=C(OC(=O)C(C)C)CC(CC3CCN(C(=O)C(C)C)C3)C2=O)c(C)c1 (stereo not drawn) | pest or weed control at 250 g/ha | 90 |
| Cc1cc(C)c(C2C(=O)C/C(=C\C3CCOC(C)(C)C3)C2=O)c(C)c1 (stereo not drawn) | pest or weed control at 250 g/ha | 90 |
| Cc1cc(C)c(C2=C(OC(=O)C3CC3)CC(CC3CCOC3)C2=O)c(C)c1 (stereo not drawn) | pest or weed control at 250 g/ha | 90 |
| Cc1cc(C)c(C2=C(O)CC(CC3CCOCC3)C2=O)c(C)c1 (stereo not drawn) | pest or weed control at 250 g/ha | 100 |
| CC(=O)N1CCCCC1CC1CC(=O)C(c2c(C)cc(C)cc2C)C1=O (stereo not drawn) | pest or weed control at 250 g/ha | 90 |
| Cc1cc(C)c(C2C(=O)CC(CC3CCCCN3S(C)(=O)=O)C2=O)c(C)c1 (stereo not drawn) | pest or weed control at 250 g/ha | 70 |
| Cc1cc(-c2ccccc2)cc(C)c1C1C(=O)C/C(=C\C2CCOCC2)C1=O (stereo not drawn) | pest or weed control at 250 g/ha | 90 |
